Target: cloned human dopamine D3 receptors (Homo sapiens)
Construct: expressed in transfected cells; membrane homogenate
Experiment: [N-Methyl-3H]Spiroperidol binding to cloned human dopamine D3 receptors
Conditions: read-out: D3 Ki
METRIC: Ki (nM)

[[record]]
compound = "O=C(NCCc1cccs1)C1CC1CN1CCC(c2noc3ccsc23)CC1 (racemic)"
metric = "Ki"
recorded_result = 22.7

[[record]]
compound = "O=C([C@@H]1C[C@H]1CN1CCN(c2csc3cc(C(F)(F)F)ccc23)CC1)N1CCN(Cc2ccccc2)CC1"
metric = "Ki"
recorded_result = 48.1

[[record]]
compound = "O=C(NC1CCN(C(=O)Nc2ccc(Cl)cc2)CC1)[C@@H]1C[C@H]1CN1CCC(c2noc3ccsc23)CC1"
metric = "Ki"
recorded_result = 4.16

[[record]]
compound = "Cc1cn(CCCNC(=O)[C@@H]2C[C@H]2CN2CCC(c3noc4ccsc34)CC2)c(C)n1"
metric = "Ki"
recorded_result = 33


----------
Reported log10(Ki) is given for each of the following molecules.
Molecular target: cloned human dopamine D3 receptors (Homo sapiens)
Construct: expressed in transfected cells; membrane homogenate
Assay: [N-Methyl-3H]Spiroperidol binding to cloned human dopamine D3 receptors
Conditions: read-out: d3Ki
METRIC: log10(Ki) (log10 of the value in nM)

[[record]]
molecule = "CCOC(=O)[C@H]1CC[C@H](NC(=O)CCCN2CCN(c3csc4cc(C(F)(F)F)ccc34)CC2)CC1"
metric = "log10(Ki)"
recorded_result = 1.15

[[record]]
molecule = "CCN(C(=O)CCCN1CCCN(c2csc3cc(F)ccc23)CC1)C1CCCCC1"
metric = "log10(Ki)"
recorded_result = 0.18

[[record]]
molecule = "CC1CCCN(C(=O)CCCN2CCN(c3csc4cc(F)ccc34)CC2)C1 (centres unmarked)"
metric = "log10(Ki)"
recorded_result = -0.24

[[record]]
molecule = "CC1CCN(C(=O)CCCN2CCN(c3csc4cc(F)ccc34)CC2)CC1"
metric = "log10(Ki)"
recorded_result = -0.94

[[record]]
molecule = "O=C(CCCN1CCN(c2csc3cc(F)ccc23)CC1)N1CCC(O)CC1"
metric = "log10(Ki)"
recorded_result = 0.55


----------
Biological target: cloned human dopamine D3 receptors (Homo sapiens, UniProt P35462)
Construct: expressed in transfected cells; membrane homogenate
Sequence (P35462 whole entry): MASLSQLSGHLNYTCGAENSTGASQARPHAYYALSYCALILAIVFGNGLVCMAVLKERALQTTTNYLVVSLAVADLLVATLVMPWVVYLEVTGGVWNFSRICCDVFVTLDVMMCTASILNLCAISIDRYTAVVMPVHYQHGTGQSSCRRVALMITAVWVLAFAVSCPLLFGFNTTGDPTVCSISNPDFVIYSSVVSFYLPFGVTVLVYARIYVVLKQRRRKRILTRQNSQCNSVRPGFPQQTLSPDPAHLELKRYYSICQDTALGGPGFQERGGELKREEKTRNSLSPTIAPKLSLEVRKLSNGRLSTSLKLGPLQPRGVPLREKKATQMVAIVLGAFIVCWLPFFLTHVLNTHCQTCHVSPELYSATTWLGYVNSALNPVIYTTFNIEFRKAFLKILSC
Test: [N-Methyl-3H]Spiroperidol binding to cloned human dopamine D3 receptors
Settings: read-out: D3 Ki
pKi: −log10 of the molar value.
Known pKi of a selection of compounds
METRIC: pKi

[[record]]
compound = "COc1ccc2c(c1)c(N1CCN(C[C@@H]3C[C@H]3C(=O)NCCCn3ccnc3)CC1)nn2C"
recorded_result = 8.42

[[record]]
compound = "O=C(NCCCn1ccnc1)[C@@H]1C[C@H]1CN1CCC(c2noc3cc(C(F)(F)F)ccc23)CC1"
recorded_result = 10.96

[[record]]
compound = "COc1cccc2c(C3CCN(C[C@@H]4C[C@H]4C(=O)NC4CC5CCC4(C)C5(C)C)CC3)nn(C)c12 (some centres unmarked)"
recorded_result = 7.21

[[record]]
compound = "O=C(NCCCN1CCCCC1)[C@@H]1C[C@H]1CN1CCC(c2csc3c(C(F)(F)F)cccc23)CC1"
recorded_result = 8.14

[[record]]
compound = "O=C(NCCN1CCCCC1)[C@@H]1C[C@H]1CN1CCN(c2csc3cc(C(F)(F)F)ccc23)CC1"
recorded_result = 7.45

[[record]]
compound = "O=C(NC1CCN(CC2CC2)CC1)[C@@H]1C[C@H]1CN1CCC(c2noc3ccsc23)CC1"
recorded_result = 9.03

[[record]]
compound = "CC(C)(C)C(=O)O[C@H]1CC[C@H](NC(=O)[C@@H]2C[C@H]2CN2CCC(c3csc4c(C(F)(F)F)cccc34)CC2)CC1"
recorded_result = 7.95

[[record]]
compound = "O=C(NC1CCN(Cc2ccc(Oc3ccccc3)cc2)CC1)C1CC1CN1CCC(c2noc3ccsc23)CC1 (racemic)"
recorded_result = 8.18

[[record]]
compound = "C[C@H]1CC[C@H](NC(=O)[C@@H]2CC[C@H]2CN2CCN(c3noc4ccsc34)CC2)CC1 (racemic)"
recorded_result = 6.56

[[record]]
compound = "CN1CCN(CCCNC(=O)[C@@H]2C[C@H]2CN2CCN(c3nn(-c4ccc(OC(F)(F)F)cc4)c4ccsc34)CC2)CC1"
recorded_result = 6.86

[[record]]
compound = "Cc1cccc(CN2CCC(NC(=O)[C@@H]3C[C@H]3CN3CCN(c4csc5cc(C(F)(F)F)ccc45)CC3)CC2)c1"
recorded_result = 8.52

[[record]]
compound = "CC(C)(C)OC(=O)N1CCN(CCNC(=O)[C@@H]2C[C@H]2CN2CCN(c3csc4cc(C(F)(F)F)ccc34)CC2)CC1"
recorded_result = 7.78

[[record]]
compound = "O=C(NC1CCN(Cc2cc(Cl)cc(Cl)c2)CC1)C1CC1CN1CCC(c2noc3ccsc23)CC1 (racemic)"
recorded_result = 10.00

[[record]]
compound = "O=C(NCCSc1ccc(Cl)cc1)[C@@H]1C[C@H]1CN1CCN(c2csc3cc(C(F)(F)F)ccc23)CC1"
recorded_result = 7.42

